Biological target: Protein cereblon/Cytochrome P450 1B1 (Homo sapiens, UniProt Q16678+Q96SW2)
Sequence (Q96SW2 whole entry, one chain of several): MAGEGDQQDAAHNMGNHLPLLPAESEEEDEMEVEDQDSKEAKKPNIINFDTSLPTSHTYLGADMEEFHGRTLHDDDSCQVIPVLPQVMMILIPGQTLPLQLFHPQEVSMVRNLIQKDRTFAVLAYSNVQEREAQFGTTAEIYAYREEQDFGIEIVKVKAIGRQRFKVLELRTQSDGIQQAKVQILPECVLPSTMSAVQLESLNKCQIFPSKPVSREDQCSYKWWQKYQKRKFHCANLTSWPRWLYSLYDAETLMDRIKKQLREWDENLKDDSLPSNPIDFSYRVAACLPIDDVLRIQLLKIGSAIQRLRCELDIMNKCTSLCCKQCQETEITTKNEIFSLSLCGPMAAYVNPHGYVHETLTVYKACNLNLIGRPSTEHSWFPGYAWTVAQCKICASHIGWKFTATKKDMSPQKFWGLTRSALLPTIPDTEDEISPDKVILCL
Assay: PROTAC activity at CRBN/CYP1B1 in human A549/Taxol cells assessed as degradation by measuring fold change in remaining CYP1B1 level at 1 nM incubated for 24 hrs by Western blotting analysis (reference value: 1)
Assay type: ADME, cell-based
Conditions: 0.001 µM
PROPERTY: fold change (FC)
One number for each entry.

Some entries whose results are on file:
O=C1CCC(N2C(=O)c3cccc(NC(=O)CN4CCN(CCCCCCCCC(=O)Nc5ccc(-c6csc(-c7csc(Nc8ccc(Cl)cc8)n7)n6)cc5)CC4)c3C2=O)C(=O)N1 (configuration not stated): 1
O=C1CCC(N2Cc3c(NC(=O)CCCCCCCCCCCCCC(=O)Nc4ccc(-c5csc(-c6csc(Nc7ccc(Cl)cc7)n6)n5)cc4)cccc3C2=O)C(=O)N1 (configuration not stated): 0.9
O=C1CCC(N2Cc3c(NC(=O)CCCCCC(=O)Nc4ccc(-c5csc(-c6csc(Nc7ccc(Cl)cc7)n6)n5)cc4)cccc3C2=O)C(=O)N1 (configuration not stated): 1.1
O=C1CCC(N2C(=O)c3cccc(NC(=O)CN4CCN(CCCCCCC(=O)Nc5ccc(-c6csc(-c7csc(Nc8ccc(Cl)cc8)n7)n6)cc5)CC4)c3C2=O)C(=O)N1 (configuration not stated): 0.8
O=C1CCC(N2C(=O)c3cccc(NC(=O)CN4CCN(CCCCCCCCCCC(=O)Nc5ccc(-c6csc(-c7csc(Nc8ccc(Cl)cc8)n7)n6)cc5)CC4)c3C2=O)C(=O)N1 (configuration not stated): 1.2

Give fold change (FC) for each of the items listed below.
1. O=C1CCC(N2C(=O)c3cccc(NC(=O)CN4CCN(CCCCCCCCCCCC(=O)Nc5ccc(-c6csc(-c7csc(Nc8ccc(Cl)cc8)n7)n6)cc5)CC4)c3C2=O)C(=O)N1 (configuration not stated)
2. O=C1CCC(N2Cc3c(NC(=O)CCCCCCCC(=O)Nc4ccc(-c5csc(-c6csc(Nc7ccc(Cl)cc7)n6)n5)cc4)cccc3C2=O)C(=O)N1 (configuration not stated)
3. O=C1CCC(N2C(=O)c3cccc(NC(=O)CN4CCN(CCCCCCCC(=O)Nc5ccc(-c6csc(-c7csc(Nc8ccc(Cl)cc8)n7)n6)cc5)CC4)c3C2=O)C(=O)N1 (configuration not stated)
4. O=C1CCC(N2C(=O)c3cccc(NC(=O)CN4CCN(CCCCCC(=O)Nc5ccc(-c6csc(-c7csc(Nc8ccc(Cl)cc8)n7)n6)cc5)CC4)c3C2=O)C(=O)N1 (configuration not stated)
5. O=C1CCC(N2Cc3c(NC(=O)CCCCCCCCCC(=O)Nc4ccc(-c5csc(-c6csc(Nc7ccc(Cl)cc7)n6)n5)cc4)cccc3C2=O)C(=O)N1 (configuration not stated)

[1.5, 0.8, 0.7, 1, 1.1]

Give fold change (FC) for each of the items listed below.
1. O=C1CCC(N2C(=O)c3cccc(NC(=O)CN4CCN(CCCCCCCCCC(=O)Nc5ccc(-c6csc(-c7csc(Nc8ccc(Cl)cc8)n7)n6)cc5)CC4)c3C2=O)C(=O)N1 (configuration not stated)
2. O=C1CCC(N2Cc3c(NC(=O)CCCCCCCCCCCC(=O)Nc4ccc(-c5csc(-c6csc(Nc7ccc(Cl)cc7)n6)n5)cc4)cccc3C2=O)C(=O)N1 (configuration not stated)

1: 0.8; 2: 0.7

* * *

Biological target: Cytochrome P450 1A1 (Homo sapiens)
Sequence (P04798 whole entry): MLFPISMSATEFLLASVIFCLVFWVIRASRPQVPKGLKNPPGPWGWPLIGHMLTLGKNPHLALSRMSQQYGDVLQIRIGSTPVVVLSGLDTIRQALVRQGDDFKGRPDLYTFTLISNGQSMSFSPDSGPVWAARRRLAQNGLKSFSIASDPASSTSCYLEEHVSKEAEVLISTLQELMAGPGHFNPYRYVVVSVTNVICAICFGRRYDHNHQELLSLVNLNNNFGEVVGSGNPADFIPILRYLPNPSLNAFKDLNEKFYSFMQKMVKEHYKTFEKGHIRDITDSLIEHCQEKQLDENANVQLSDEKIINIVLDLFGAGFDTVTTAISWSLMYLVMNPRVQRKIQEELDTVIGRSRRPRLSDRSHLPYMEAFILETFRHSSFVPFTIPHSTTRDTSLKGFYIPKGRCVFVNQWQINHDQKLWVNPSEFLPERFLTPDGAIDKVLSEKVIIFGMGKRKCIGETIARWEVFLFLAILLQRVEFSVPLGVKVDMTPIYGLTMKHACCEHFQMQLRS
Assay: Inhibition of recombinant human CYP1A1 using 7-ethyl-O-resorufin as substrate incubated for 30 mins in presence of NADPH by EROD assay
PROPERTY: pIC50
Answers are plain numbers, as −log10 of the molar value.

Please supply the value of reported pIC50 for the item "Clc1ccc(Nc2nc(-c3nc(-c4ccccc4)cs3)cs2)cc1" 6.55

* * *

Biological target: Protein cereblon/Cytochrome P450 1B1 (Homo sapiens, UniProt Q16678+Q96SW2)
Test: PROTAC activity at CRBN/CYP1B1 in human A549/Taxol cells assessed as degradation by measuring fold change in remaining CYP1B1 level at 1000 nM incubated for 24 hrs by Western blotting analysis (reference value: 1)
Format: ADME, cell-based
Details: 1 µM
PROPERTY: fold change (FC)

O=C1CCC(N2C(=O)c3cccc(NC(=O)CN4CCN(CCCCCCCCCC(=O)Nc5ccc(-c6csc(-c7csc(Nc8ccc(Cl)cc8)n7)n6)cc5)CC4)c3C2=O)C(=O)N1 (stereo not drawn): 1.2
O=C1CCC(N2Cc3c(NC(=O)CCCCCC(=O)Nc4ccc(-c5csc(-c6csc(Nc7ccc(Cl)cc7)n6)n5)cc4)cccc3C2=O)C(=O)N1 (stereo not drawn): 1

Next up:
Please report fold change (FC) with Protein cereblon/Cytochrome P450 1B1 (Homo sapiens, UniProt Q16678+Q96SW2) for item O=C1CCC(N2C(=O)c3cccc(NC(=O)CN4CCN(CCCCCCCC(=O)Nc5ccc(-c6csc(-c7csc(Nc8ccc(Cl)cc8)n7)n6)cc5)CC4)c3C2=O)C(=O)N1 (stereo not drawn) . 1

* * *

Biological target: von Hippel-Lindau disease tumor suppressor/Cytochrome P450 1B1 (Homo sapiens, UniProt Q16678+P40337)
Sequence (Q16678 whole entry): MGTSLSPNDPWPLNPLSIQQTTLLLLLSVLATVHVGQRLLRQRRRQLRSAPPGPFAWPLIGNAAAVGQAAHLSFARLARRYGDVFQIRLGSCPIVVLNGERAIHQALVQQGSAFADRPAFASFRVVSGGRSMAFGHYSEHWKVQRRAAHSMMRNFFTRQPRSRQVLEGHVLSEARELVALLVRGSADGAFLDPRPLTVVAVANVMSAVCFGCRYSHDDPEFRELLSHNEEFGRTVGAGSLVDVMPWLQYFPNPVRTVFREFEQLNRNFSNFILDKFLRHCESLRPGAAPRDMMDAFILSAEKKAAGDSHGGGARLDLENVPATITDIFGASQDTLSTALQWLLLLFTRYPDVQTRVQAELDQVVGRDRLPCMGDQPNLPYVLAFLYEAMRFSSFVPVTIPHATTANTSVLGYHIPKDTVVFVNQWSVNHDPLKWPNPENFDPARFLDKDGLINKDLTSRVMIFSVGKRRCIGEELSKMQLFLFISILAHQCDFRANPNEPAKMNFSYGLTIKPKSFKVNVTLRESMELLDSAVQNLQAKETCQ
Sequence (P40337 whole entry): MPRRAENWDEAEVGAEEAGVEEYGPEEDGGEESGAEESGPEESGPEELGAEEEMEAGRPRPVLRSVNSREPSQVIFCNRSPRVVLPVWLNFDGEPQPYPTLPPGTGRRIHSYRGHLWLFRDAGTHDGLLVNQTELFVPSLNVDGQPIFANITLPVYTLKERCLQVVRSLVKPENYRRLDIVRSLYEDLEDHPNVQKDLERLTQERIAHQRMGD
Assay: PROTAC activity at VHL/CYP1B1 in human A549/Taxol cells assessed as degradation by measuring fold change in remaining CYP1B1 level at 1000 nM incubated for 24 hrs by Western blotting analysis (reference value: 1)
Format: ADME, cell-based
Conditions: 1 µM
PROPERTY: fold change (FC)
Give bare numbers.

Cc1ncsc1-c1ccc([C@H](C)NC(=O)[C@@H]2C[C@@H](O)CN2C(=O)[C@@H](NC(=O)CCCCCCCOc2ccccc2-c2csc(-c3csc(Nc4ccc(Cl)cc4)n3)n2)C(C)(C)C)cc1: 0.2
Cc1ncsc1-c1ccc([C@H](C)NC(=O)[C@@H]2C[C@@H](O)CN2C(=O)[C@@H](NC(=O)CCCCCCCCOc2ccccc2-c2csc(-c3csc(Nc4ccc(Cl)cc4)n3)n2)C(C)(C)C)cc1: 0.6

Next up:
Please supply the value of reported fold change (FC) for the item "Cc1ncsc1-c1ccc([C@H](C)NC(=O)[C@@H]2C[C@@H](O)CN2C(=O)[C@@H](NC(=O)Cn2cc(CCCCCOc3ccccc3-c3csc(-c4csc(Nc5ccc(Cl)cc5)n4)n3)nn2)C(C)(C)C)cc1" 0.9

* * *

Target: von Hippel-Lindau disease tumor suppressor/Cytochrome P450 1B1 (Homo sapiens, UniProt Q16678+P40337)
Assay: PROTAC activity at VHL/CYP1B1 in human A549/Taxol cells assessed as degradation by measuring fold change in remaining CYP1B1 level at 1000 nM incubated for 24 hrs by Western blotting analysis (reference value: 1)
Type: ADME, cell-based
Conditions: 1 µM
PROPERTY: fold change (FC)

Cc1ncsc1-c1ccc([C@H](C)NC(=O)[C@@H]2C[C@@H](O)CN2C(=O)[C@@H](NC(=O)CCCCCCCCCOc2ccccc2-c2csc(-c3csc(Nc4ccc(Cl)cc4)n3)n2)C(C)(C)C)cc1: 1.5
Cc1ncsc1-c1ccc([C@H](C)NC(=O)[C@@H]2C[C@@H](O)CN2C(=O)[C@@H](NC(=O)Cn2cc(COCCOCCOc3ccccc3-c3csc(-c4csc(Nc5ccc(Cl)cc5)n4)n3)nn2)C(C)(C)C)cc1: 1.3

Next up:
Please supply the value of reported fold change (FC) for the item "Cc1ncsc1-c1ccc([C@H](C)NC(=O)[C@@H]2C[C@@H](O)CN2C(=O)[C@@H](NC(=O)CCCCCCCCCCOc2ccccc2-c2csc(-c3csc(Nc4ccc(Cl)cc4)n3)n2)C(C)(C)C)cc1" 1.8
